Each record here notes measured GI50.
# Tested on: M14
# test method notes: NCI tumour cell line growth inhibition, 48 h
Active and inactive are the calls of the source. Cut-off read from the data, not from the text of the source: active = GI50 up to about 1.1 µM and inactive = higher.

Ask: Indicate its recorded GI50; the molecule in question is CC(C)(C)OC(=O)NCC(=O)N(CCc1ccc(Cl)c(Cl)c1)CCN1CCCC1
Reply: 14.3 µM (inactive)

Ask: Given the molecule CCOC(=O)CCC(C(=O)OCC)n1nnc2ccc(Nc3c(C)[n+]([O-])c4ccc(Cl)cc4[n+]3[O-])cc21 (stereo not given) , write its reported GI50.
Reply: 37.5 µM (inactive)

Ask: Specify reported GI50 for the molecule shown: O=C1Oc2ccccc2C(=O)/C1=C1/C=C(c2ccccc2)SS1
Reply: 43.8 µM (inactive)

Ask: Please list GI50 recorded for the molecule CC1=NC(C)(C)[N+]([O-])=C1
Reply: > 10 µM (inactive)

Ask: Using known records, supply GI50 for CC1=NN(C(=O)Cc2ccccc2)C(=O)/C1=C\C=C\c1ccccc1
Reply: > 100 µM (inactive)

Ask: Look up GI50 of CCCn1cc2c(SC)nc(SC)nc2n1 and report it.
Reply: > 100 µM (inactive)

Ask: Tell me its GI50 given O=C1NN=C(c2ccc([N+](=O)[O-])cc2)C1n1nc(-c2ccccc2)c2ccccc2c1=O (stereo not given) as the entry.
Reply: > 100 µM (inactive)
